For each record, write down the corresponding GI50.
system: SK-MEL-2 melanoma; assay: NCI tumour cell line growth inhibition, 48 h

# input Given the molecule O=C(Nc1ccc(Cl)cc1)Nc1ccc(Cl)c(C(F)(F)F)c1 , what is its reported GI50?
# output 3.25 µM

# input Next record, please: C=C1C(O)C2C(=C(CCC3CC3)C13CC3)C(=O)C(C)(C)C2O (centres undefined)
# output > 100 µM

# input Moving on to the next molecule: Cc1cc(=O)n2nnc3c4ccccc4ccc3n12
# output 16.5 µM

# input Next molecule up: CC(=O)N1CCC(Nc2ncc3cc(Oc4ccc(F)cc4F)c(=O)n(C)c3n2)CC1
# output > 25 µM
